Each recorded value in this set is attributed to PubChem BioAssay (NCI).

- System: HCT-116 colon
- assayName: NCI tumour cell line growth inhibition, 48 h
Attribute: TGI
metricName: TGI (µM)

>  <molecule>
C/C(CC(=O)Nc1cccc(Cl)c1C)=N\NC(=O)c1ccncc1

>  <relationQualifier>
>

>  <assayResult>
100

$$$$
>  <molecule>
CC(C)C(=O)NS(=O)(=O)c1ccccc1

>  <relationQualifier>
>

>  <assayResult>
100

$$$$
>  <molecule>
Ic1cccc(/C=C/CN2CCN(CCOC(c3ccccc3)c3ccccc3)CC2)c1

>  <relationQualifier>
=

>  <assayResult>
26.8

$$$$
>  <molecule>
CC(C)N(C(=O)C12C3C4C1(I)C1C2C3(I)C41C(=O)N(C(C)C)C(C)C)C(C)C (centres undefined)

>  <relationQualifier>
>

>  <assayResult>
100

$$$$
>  <molecule>
COc1cc(N=Nc2cccc(S(=O)(=O)O)c2)ccc1N=Nc1ccc(/C=C/c2ccc(-n3on3-c3ccc(/C=C/c4ccc(N=Nc5ccc(N=Nc6cccc(S(=O)(=O)O)c6)cc5OC)cc4S(=O)(=O)O)c(S(=O)(=O)O)c3)cc2S(=O)(=O)O)c(S(=O)(=O)O)c1

>  <relationQualifier>
>

>  <assayResult>
100

$$$$
>  <molecule>
O=C1NC(=O)C(c2c[nH]c3ccccc23)=C1c1cn(C(c2ccccc2)(c2ccccc2)c2ccccc2)cn1

>  <relationQualifier>
=

>  <assayResult>
13.1

$$$$
>  <molecule>
O=C(c1cccs1)N(C(=O)N1CCN(c2ccccc2)CC1)S(=O)(=O)c1ccccc1

>  <relationQualifier>
=

>  <assayResult>
38.6

$$$$
>  <molecule>
CNC(=S)N=Nc1c(O)n(CN2CCOCC2)c2ccc([N+](=O)[O-])cc12

>  <relationQualifier>
=

>  <assayResult>
28.7

$$$$
>  <molecule>
CC1COC(C)(C)P(=O)(c2ccccc2)C1 (centres undefined)

>  <relationQualifier>
>

>  <assayResult>
100

$$$$

* * *

Attribute: TGI
- System: A549 NSCLC
- assayName: NCI tumour cell line growth inhibition, 48 h

>  <structure>
CCN(Cc1ccccc1C)c1ccc(CO)c(Cl)c1

>  <TGI>
27.9 µM

$$$$
>  <structure>
CCOC(=O)/C=C(/C)Sc1cc(O)c2ccccc2c1O

>  <TGI>
5.99 µM

$$$$
>  <structure>
O=C(Nc1ccc(-n2ccc3c(NC(=O)c4ccccc4)nccc32)cc1)Nc1ccc(Cl)c(Cl)c1

>  <TGI>
2.57 µM

$$$$
>  <structure>
Cc1[nH]c(/C=C2\C(=O)Nc3ccccc32)c(C)c1CCC(=O)O

>  <TGI>
> 100 µM

$$$$
>  <structure>
O=C(N[C@@H](c1ccccc1)[C@@H](O)C(=O)OCc1ccc([N+](=O)[O-])cc1)c1ccccc1

>  <TGI>
> 100 µM

$$$$

* * *

- System: TK-10 renal
- assayName: NCI tumour cell line growth inhibition, 48 h
metricName: TGI

>  <compound>
Cc1cn(C2CC(O)C(CO[Si](C)(C)C(C)(C)C)OC2OC(C)C)c(=O)[nH]c1=O (stereo unspecified)

>  <systemTested>
TK-10 renal

>  <assayResult>
> 100 µM

$$$$
>  <compound>
COc1ccc2c(c1)C(=O)OCCC2

>  <systemTested>
TK-10 renal

>  <assayResult>
> 100 µM

$$$$
>  <compound>
CN1C(=O)/C(=C/c2c(Cl)n(C)c3ccccc23)c2ccccc21

>  <systemTested>
TK-10 renal

>  <assayResult>
2.67 µM

$$$$
>  <compound>
Cc1nn(C(=O)Cc2ccccc2)c2c1C(c1ccc(Cl)cc1)SC(N)=N2 (stereo unspecified)

>  <systemTested>
TK-10 renal

>  <assayResult>
> 100 µM

$$$$
>  <compound>
COCC1(CO)C(=O)C2CCN1CC2 (stereo unspecified)

>  <systemTested>
TK-10 renal

>  <assayResult>
31.1 µM

$$$$
>  <compound>
COC1=CC2C(c3cc4ccccc4n3S(=O)(=O)c3ccccc3)CC1CN2C(=O)OCc1ccccc1 (stereo unspecified)

>  <systemTested>
TK-10 renal

>  <assayResult>
> 100 µM

$$$$

* * *

- Test system: NCI-H226 lung
- assayName: NCI tumour cell line growth inhibition, 48 h
metricName: TGI (µM)

>  <molecule>
COC(=O)C1=C(C(=O)Nc2cccnc2Cl)N(c2ccc(OC)cc2[N+](=O)[O-])C(c2ccc(C)cc2)=CC1c1ccc(OC)cc1OC (centres undefined)

>  <displayUnit>
µM

>  <relationQualifier>
=

>  <assayResult>
38.1

$$$$
>  <molecule>
CN(C)CC1CCC/C(=C\c2ccc(Cl)cc2)C1=O (centres undefined)

>  <displayUnit>
µM

>  <relationQualifier>
=

>  <assayResult>
28.8

$$$$
>  <molecule>
O[C@H](c1cc(C(F)(F)F)nc2c(C(F)(F)F)cccc12)[C@@H]1CCCCN1

>  <displayUnit>
µM

>  <relationQualifier>
=

>  <assayResult>
22.6

$$$$
>  <molecule>
CC1=NC(=Cc2cc(Br)cc(Br)c2)C(=O)N1n1c(-c2ccccc2)nc2ccccc2c1=O

>  <displayUnit>
µM

>  <relationQualifier>
>

>  <assayResult>
100

$$$$
>  <molecule>
O=C1NC(=O)C(c2c[nH]c3ccccc23)=C1c1cn(C(c2ccccc2)(c2ccccc2)c2ccccc2)cn1

>  <displayUnit>
µM

>  <relationQualifier>
=

>  <assayResult>
19.9

$$$$
>  <molecule>
CCOC(=O)/C=C/[C@H](O[Si](CC)(CC)CC)C(C)(C)C

>  <displayUnit>
µM

>  <relationQualifier>
>

>  <assayResult>
100

$$$$
>  <molecule>
CC(C)N(C(=O)C12C3C4C1(I)C1C2C3(I)C41C(=O)N(C(C)C)C(C)C)C(C)C (centres undefined)

>  <displayUnit>
µM

>  <relationQualifier>
>

>  <assayResult>
100

$$$$
>  <molecule>
N#Cc1[nH]c(=S)[nH]c1N

>  <displayUnit>
µM

>  <relationQualifier>
>

>  <assayResult>
100

$$$$
>  <molecule>
C=C1C(=O)O[C@H]2[C@H]1CC/C(COC(=O)/C=C\C(=O)NCc1ccc(Cn3c(=O)sn(CCCC)c3=O)cc1)=C\CC[C@@]1(C)O[C@@H]21

>  <displayUnit>
µM

>  <relationQualifier>
=

>  <assayResult>
3.39

$$$$

* * *

Attribute: TGI
- System: EKVX NSCLC
- assayName: NCI tumour cell line growth inhibition, 48 h

>  <molecule>
O=C(CCc1cc(O)ccc1O)OCCc1ccccc1

>  <systemTested>
EKVX NSCLC

>  <TGI>
61.9 µM

$$$$
>  <molecule>
COc1ccc2c(c1)C(=O)OCCC2

>  <systemTested>
EKVX NSCLC

>  <TGI>
> 100 µM

$$$$
>  <molecule>
COC(=O)C1=C(C(=O)Nc2cccnc2Cl)N(c2ccc(OC)cc2[N+](=O)[O-])C(c2ccc(C)cc2)=CC1c1ccc(OC)cc1OC (stereo not given)

>  <systemTested>
EKVX NSCLC

>  <TGI>
> 81.9 µM

$$$$
>  <molecule>
CN(C)c1ccc(/C=N\NC(=O)Nc2cccc3ccccc23)cc1

>  <systemTested>
EKVX NSCLC

>  <TGI>
> 100 µM

$$$$
>  <molecule>
CC1=NC(=Cc2cc(Br)cc(Br)c2)C(=O)N1n1c(-c2ccccc2)nc2ccccc2c1=O

>  <systemTested>
EKVX NSCLC

>  <TGI>
> 100 µM

$$$$

* * *

- System: UO-31 renal
- assayName: NCI tumour cell line growth inhibition, 48 h

>  <compound>
O=S(=O)(Nc1ccc(F)cc1F)c1ccc(-c2cnc(C3CC3)o2)cc1

>  <systemTested>
UO-31 renal

>  <GI50>
1070 nM

$$$$
>  <compound>
N=C(N)c1ccc2nc(-c3cc(CC(=O)N[C@@H](CC(=O)O)C(=O)O)cc(-c4cc(S(N)(=O)=O)ccc4O)c3O)[nH]c2c1

>  <systemTested>
UO-31 renal

>  <GI50>
> 100000 nM

$$$$
>  <compound>
O=C(CSC1CCc2ccccc21)N/N=C/c1ccccc1O (stereo not drawn)

>  <systemTested>
UO-31 renal

>  <GI50>
985 nM

$$$$

* * *

Attribute: TGI
- System: MOLT-4 leukemia
- assayName: NCI tumour cell line growth inhibition, 48 h
metricName: TGI

>  <compound>
O=S(=O)(c1ccccc1)C1CN2OC1(S(=O)(=O)c1ccccc1)CC2c1ccc(Br)cc1 (centres undefined)

>  <assayResult>
> 100 µM

$$$$
>  <compound>
Cc1cc(C)nc(NS(=O)(=O)c2ccc(NC(=O)c3cccc4c(Nc5ccc(S(N)(=O)=O)cc5)c5ccccc5nc34)cc2)n1

>  <assayResult>
29.3 µM

$$$$
>  <compound>
CC(=O)O[C@H]1CC[C@@]2(C)C(=CC[C@@H]3[C@@H]2CC[C@]2(C)NC(=O)/C(=C\c4ccccc4)C[C@@H]32)C1

>  <assayResult>
> 100 µM

$$$$
>  <compound>
COc1cccc2cc(C(=O)O)c(=O)oc12

>  <assayResult>
> 100 µM

$$$$
